Attribution: patent US20240218057A1

Target: T1, SARS-COV-2 RBD (SARS-COV-2, UniProt P0DTC2 319-539)
T1 construct: also called WT RBD
Assay: ELISA, RBD coated
EC50 reference

| binder | EC50 (ng/mL) |
| --- | --- |
| C896 (antibody, V domains shown, IgG; V domains only) VH: QVQLVESGGGVVQPGRSLKLSCAASGFTFKTYGMHWVRQAPGKGLEWVAVISYDGTNDYYADSVKGRFTVSRDNSKNTLYLQMNSPRTEDTAVYYCAKAGGPYYYDTSGSFWYFDYWGQGTLVTVSS VL: DIQMTQSPSSLSASVGDRVTITCRASQTISSYLNWYQQKSGKAPELLVYDASNLESGVPSRFSGSGSGTDFTLTISSLQPEDFATYYCQQSYSFGPGTKVDIK | 4.3 |
| C978 (antibody, V domains shown, IgG; V domains only) VH: QVQLVQSGAEVKKPGSSVKVSCKASGATFSNYIISWVRQAPGQGLEWMGRTIPLLDIANYAQKFQGRVTITADKSTRIVYMHLGSLTSEDTAVYYCATGKGYSSSSAAYYFDHWGQGTLVTVSS VL: QSVLTQPPSVSGAPGQRVTISCTGTNSNIGAGYDIHWYQQLPGTAPKLLIYGSNNRPSGVPDRFSGSKSGTSASLAITGLQAEDEADYYCQSYDSSLSGSEVFGGGTKLTVL | 2.09 |
| C996 (antibody, V domains shown, IgG; V domains only) VH: EVQLVESGGGLVQPGGSLRLSCVASGFTSTNYDMHWVRQAPGRGLQWVSSIGTAGDTYYPGSVRGRFTISRENAKNSLDLQMNSLRVGDTAVYYCARGQRGYYDRSGYYWGWRAFDIWGQGTMVTVSS VL: SYELTQPPSVSVAPGQTARITCGGNNIGNKSVYWYQQKPGQAPVLVVYDDSGRPSGIPERFSGSNSANTATLTISRVEAGDEADYYCQVWDNNSDQFGGGTKLTVL | 3.07 |
